Entry source: PubChem BioAssay (NCI)

# Test system: NCI-H322M lung
# test_protocol: NCI-60 one-dose screen, 48 h (100 = growth as untreated, 0 = no growth, -100 = all killed)
# settings: 10 µM unless noted
About 83,000 compounds went through this panel and 20% of them were active in at least one assay; those are over-represented in the sample as a whole. Active and inactive are the calls of the source. Rule for the calls: active = growth percent below 10; inactive = the rest.
Recorded growth values for a group of compounds are listed next.

Sample records with growth:
{"compound": "COC(=O)C1=C(C)NC(C)=C(C(=O)OCC(C)C)C1c1ccccc1[N+](=O)[O-] (stereo not given)", "growth": "65.4% (inactive)"}
{"compound": "C=C(CN1CC=CCC1)[C@@H]1CC[C@]2(CO)CC[C@]3(C)[C@H](CC[C@@H]4[C@@]5(C)CC[C@H](O)C(C)(C)[C@@H]5CC[C@]43C)[C@@H]12", "growth": "110% (inactive)"}
{"compound": "C#CCn1cnc2c(Nc3cccc(NC(=O)CCl)c3)ncnc21", "growth": "81.1% (inactive)"}
{"compound": "COc1ccc(C(O)c2cc3c(N)c(C(=O)Nc4cccc(Cl)c4)sc3nc2C)cc1 (stereo not given)", "growth": "46.6% (inactive)"}
{"compound": "O=C(CN1C(=O)NC2NC(=O)NC21)N/N=C/c1ccc(Cl)cc1Cl (stereo not given)", "growth": "104% (inactive)"}
{"compound": "Clc1ccc(-c2nc(-c3c[nH]c4ncccc34)cs2)cc1", "growth": "61.7% [100 µM] (inactive)"}
{"compound": "O=C(O)c1cccc(N/C=C/C(=O)c2cc3cc(Br)ccc3oc2=O)c1", "growth": "100% (inactive)"}
{"compound": "COc1ccc2cc(-c3cnc4nonc4n3)ccc2c1", "growth": "54.5% (inactive)"}

// growth lookup, compound = "C#Cc1cccc(Oc2ccc(NC(=O)CCl)cc2)c1" , result: 100% [8.25 µM] (inactive)

// growth lookup, compound = "C[N+](C)(C/C=C/c1ccccc1)Cc1ccccc1" , result: 89.7% (inactive)
